Test system: SN12C renal
method: NCI tumour cell line growth inhibition, 48 h; in the data active means GI50 below about 0.43 µM; inactive means the rest
// classify into Y (active), N (inactive)

Answered cases to consult:
O=C1/C(=C/c2ccc(Cl)cc2)COc2ccc(O)cc21 = N
C=C1C(=O)O[C@H]2[C@H]1CC/C(COC(=O)CCCCCCC(=O)OC/C1=C/CC[C@@]3(C)O[C@H]3[C@H]3OC(=O)C(=C)[C@@H]3CC1)=C\CC[C@@]1(C)O[C@@H]21 = N
COc1ccc(CCn2c3c(c4c(O)cccc42)C(=O)c2ccccc2-3)cc1OC = N
Cn1cc(-c2nc3c(F)cc4[nH]ncc4c3c3c2CCCC3)c(C(F)(F)F)n1 = N
CS(=O)(=O)Nc1cc(-c2ccc3ncnc(Nc4ccc5c(cnn5Cc5cccc(F)c5)c4)c3c2)cnc1Cl = Y

Given COc1ccc(C2CC(c3cc(Cl)c(C)cc3O)=NN2c2ccc(S(N)(=O)=O)cc2)cc1OC (centres undefined) , state the outcome it received in this test. N

Outcome? `O=C1Nc2ccccc2/C1=C/C(=N/c1nnc(-c2ccccc2)s1)c1ccccc1` N

// outcome(item) with item = `COc1ccc2nc(NNC(=O)c3cnccn3)c3cccn3c2c1` Y

Short answer needed: outcome of this test for `CCCCCCCCc1cc[n+](CC(=O)c2ccc(Br)cc2)cc1` ? N

Data origin, for the record: PubChem BioAssay (NCI)
